Values from paper PMC12669040

TEST NAME: Colorimetric alkylation rate constant assay with thiol N1
Assay type: physicochemical
EXPERIMENTAL SETUP: Replicate 1; time 576 sec; N1 from calibration curve (N1 in uM); in µM
Note to self: remaining [A] under 80 means yes, ties and anything higher get no.

# COMPOUND, CLASSIFICATION
measured = [
    ("COc1cc2sc(C(=O)CCC(=O)O)cc2cc1NC(=O)CCl [Compound E2]", "yes"),
    ("O=C(CCl)Nc1ccccc1C(=O)O", "no"),
    ("C=CS(=O)(=O)Nc1cc2cc(C(=O)CCC(=O)O)sc2cc1OC [Compound E1]", "yes"),
]

* * *

TEST NAME: Colorimetric alkylation rate constant assay with thiol N1
Format: physicochemical
EXPERIMENTAL SETUP: Replicate 2; time 576 sec; [B]0=250; in µM
ENDPOINT LABEL: remaining [B]

# MOLECULE, MEAS VALUE
records = [
    ("O=C(CCl)Nc1ccccc1", 227.268),
    ("O=C(CCl)Nc1ccccc1C(=O)O", 232.681),
    ("C=CS(=O)(=O)Nc1cc2cc(C(=O)CCC(=O)O)sc2cc1OC [Compound E1]", 177.381),
    ("COc1cc2sc(C(=O)CCC(=O)O)cc2cc1NC(=O)CCl [Compound E2]", 162.358),
    ("O=C(CCl)N1CCOCC1", 224.887),
    ("O=C(CCl)Nc1ccc(F)cc1", 225.794),
]

* * *

# Lookup of reported remaining [B] keyed by entry
TEST NAME: Colorimetric alkylation rate constant assay with TNB^2− as non-specific thiol
Format: physicochemical
EXPERIMENTAL SETUP: Replicate 3, 1265 sec, [B]0=250; in µM

# COMPOUND, remaining [B]
rows = [
    ("COc1cc2sc(C(=O)CCC(=O)O)cc2cc1NC(=O)CCl [Compound E2]", 241.344),
    ("O=C(CCl)Nc1ccccc1 [Compound C2]", 244.311),
    ("O=C(CCl)N1CCOCC1 [Compound C4]", 240.878),
    ("C=CS(=O)(=O)Nc1cc2cc(C(=O)CCC(=O)O)sc2cc1OC [Compound E1]", 246.731),
    ("O=C(CCl)Nc1ccc(F)cc1 [Compound C3]", 243.82),
    ("O=C(CCl)Nc1ccccc1C(=O)O [Compound C5]", 245.389),
]

* * *

TEST NAME: Colorimetric alkylation rate constant assay with TNB^2− as non-specific thiol
Assay type: physicochemical
EXPERIMENTAL SETUP: Replicate 1, 1988 sec, [B]0 = 250; in µM

# COMPOUND, remaining [B]
records = [
    ("O=C(CCl)Nc1ccccc1C(=O)O [Compound C5]", 245.767),
    ("O=C(CCl)N1CCOCC1 [Compound C4]", 238.42),
    ("O=C(CCl)Nc1ccccc1 [Compound C2]", 241.539),
    ("C=CS(=O)(=O)Nc1cc2cc(C(=O)CCC(=O)O)sc2cc1OC [Compound E1]", 243.833),
    ("COc1cc2sc(C(=O)CCC(=O)O)cc2cc1NC(=O)CCl [Compound E2]", 241.394),
    ("O=C(CCl)Nc1ccc(F)cc1 [Compound C3]", 242.245),
]

* * *

TEST NAME: Colorimetric alkylation rate constant assay with TNB^2− as non-specific thiol
Format: physicochemical
EXPERIMENTAL SETUP: Replicate 3, 2349 sec, [B]0=250; in µM
# Lookup of reported remaining [B] keyed by entry
ENDPOINT LABEL: remaining [B]

# MOLECULE, MEAS VALUE
records = [
    ("C=CS(=O)(=O)Nc1cc2cc(C(=O)CCC(=O)O)sc2cc1OC [Compound E1]", 244.16),
    ("O=C(CCl)Nc1ccccc1C(=O)O [Compound C5]", 244.872),
    ("O=C(CCl)Nc1ccc(F)cc1 [Compound C3]", 241.955),
    ("COc1cc2sc(C(=O)CCC(=O)O)cc2cc1NC(=O)CCl [Compound E2]", 239.706),
    ("O=C(CCl)N1CCOCC1 [Compound C4]", 236.921),
    ("O=C(CCl)Nc1ccccc1 [Compound C2]", 242.232),
]

* * *

TEST NAME: Colorimetric alkylation rate constant assay with TNB^2− as non-specific thiol
Assay type: physicochemical
EXPERIMENTAL SETUP: Replicate 3, 723 sec, [B]0=250; in µM
# Lookup of reported remaining [B] keyed by entry

# MOLECULE, remaining [B]
records = [
    ("O=C(CCl)Nc1ccccc1C(=O)O", 245.666),
    ("C=CS(=O)(=O)Nc1cc2cc(C(=O)CCC(=O)O)sc2cc1OC [Compound E1]", 248.495),
    ("O=C(CCl)Nc1ccc(F)cc1", 244.853),
    ("COc1cc2sc(C(=O)CCC(=O)O)cc2cc1NC(=O)CCl [Compound E2]", 242.314),
    ("O=C(CCl)Nc1ccccc1", 245.156),
    ("O=C(CCl)N1CCOCC1", 243.07),
]

* * *

TEST NAME: Colorimetric alkylation rate constant assay with TNB^2− as non-specific thiol
Assay type: physicochemical
EXPERIMENTAL SETUP: Replicate 1, 2530 sec, [B]0 = 250; in µM
# Lookup of reported remaining [B] keyed by entry

# COMPOUND, remaining [B]
rows = [
    ("COc1cc2sc(C(=O)CCC(=O)O)cc2cc1NC(=O)CCl [Compound E2]", 240.437),
    ("O=C(CCl)Nc1ccc(F)cc1", 241.262),
    ("O=C(CCl)Nc1ccccc1", 240.607),
    ("O=C(CCl)Nc1ccccc1C(=O)O", 245.464),
    ("O=C(CCl)N1CCOCC1", 236.392),
    ("C=CS(=O)(=O)Nc1cc2cc(C(=O)CCC(=O)O)sc2cc1OC [Compound E1]", 242.61),
]

* * *

Tested on: THP-1 Lucia ISG cells (interferon pathway)
TEST NAME: Potency test of purified dimers on THP-1 Lucia ISG reporter cells
Format: cell-based, human
EXPERIMENTAL SETUP: Homo sapiens, THP1-Lucia ISG, 24 h, Concentration 1.52416 nM; three replicates; read-out: Processed reporter response per replicate (reading relative to DMSO)
Label y when fold induction at 0.00152416 µM >= 0.9; otherwise n.

# MOLECULE, CLASSIFICATION
data = [
    ("COc1cc2sc(C(=O)CCC(=O)O)cc2cc1CSCc1cc2cc(C(=O)CCC(=O)O)sc2cc1OC [Compound D7]", "y"),
    ("COc1cc2sc(C(=O)CCC(=O)O)cc2cc1Sc1cc2cc(C(=O)CCC(=O)O)sc2cc1OC [Compound D1]", "y"),
    ("COc1cc2sc(C(=O)CCC(=O)O)cc2cc1CSc1cc2cc(C(=O)CCC(=O)O)sc2cc1OC [Compound D2]", "n"),
    ("COc1cc2sc(C(=O)CCC(=O)O)cc2cc1CCCSc1cc2cc(C(=O)CCC(=O)O)sc2cc1OC [Compound D4]", "n"),
]

* * *

Tested on: THP-1 Lucia ISG cells (interferon pathway)
TEST NAME: Potency test of purified dimers on THP-1 Lucia ISG reporter cells
Type: cell-based, human
EXPERIMENTAL SETUP: Homo sapiens, THP1-Lucia ISG; 24 h, three biological replicates, mean ± s.d.; read-out: EC50 THP-1
pEC50: −log10 of the molar value.

# COMPOUND, VALUE QUALIFIER, pEC50
records = [
    ("COc1cc2sc(C(=O)CCC(=O)O)cc2cc1SCCCSc1cc2cc(C(=O)CCC(=O)O)sc2cc1OC", "<", 5.00),
    ("COc1cc2sc(C(=O)CCC(=O)O)cc2cc1CSCc1cc2cc(C(=O)CCC(=O)O)sc2cc1OC", "=", 6.92),
    ("COc1cc2sc(C(=O)CCC(=O)O)cc2cc1CSc1cc2cc(C(=O)CCC(=O)O)sc2cc1OC [Compound D2]", "=", 7.13),
    ("COc1cc2sc(C(=O)CCC(=O)O)cc2cc1Sc1cc2cc(C(=O)CCC(=O)O)sc2cc1OC [Compound D1]", "=", 6.54),
    ("COc1cc2sc(C(=O)CCC(=O)O)cc2cc1SCSc1cc2cc(C(=O)CCC(=O)O)sc2cc1OC", "=", 6.95),
    ("COc1cc2sc(C(=O)CCC(=O)O)cc2cc1CCCSc1cc2cc(C(=O)CCC(=O)O)sc2cc1OC", "<", 5.00),
]
